Reference source for all entries: ChEMBL document CHEMBL1770133

experiment: Clearance in mouse at 1 mg/kg, iv and 10 mg/kg, po; format: ADME, organism-based; conditions: in vivo
readoutLabel: clearance (mL/min/kg)

molSmiles | unitAnnotation | clearance
CS(=O)(=O)c1ccc(OCC[C@@H]2C[C@@H]2C2CCN(c3ncc(Cl)cn3)CC2)nc1 | mL/min/kg | 2.1

a: CS(=O)(=O)c1ccc(N2CCC(C3CCN(c4ccc(Cl)cn4)CC3)CC2)cc1
b: CC(C)(C)OC(=O)N1CCC(C2CCN(c3ccc(S(C)(=O)=O)cc3)CC2)CC1
Form: Entry with minimum clearance (choose one): a / b // respond with label for picked entry
a

###

molecular target: UniProtKB Q7TQP3; assay: Agonist activity at mouse GPR119 expressed in CHO cells co-expressing Galpha15 assessed as increase of intracellular cAMP accumulation after 60 mins by HTRF assay; type: functional, cell-based
Sequence (Q7TQP3 whole entry): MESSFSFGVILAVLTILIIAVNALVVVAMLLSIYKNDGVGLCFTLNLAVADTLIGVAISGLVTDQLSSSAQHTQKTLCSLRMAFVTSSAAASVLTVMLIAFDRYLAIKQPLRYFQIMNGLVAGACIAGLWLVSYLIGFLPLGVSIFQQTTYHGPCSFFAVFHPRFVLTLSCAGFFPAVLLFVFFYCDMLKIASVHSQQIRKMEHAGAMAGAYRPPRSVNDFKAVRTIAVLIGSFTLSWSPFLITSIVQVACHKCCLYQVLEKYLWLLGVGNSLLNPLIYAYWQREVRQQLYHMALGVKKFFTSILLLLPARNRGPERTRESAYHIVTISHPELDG
readoutLabel: EC50 (nM)

A: Cc1cnc(N2CCC(C3CCN(c4cc(C#N)nc(C)n4)CC3)CC2)nc1
B: CS(=O)(=O)c1ccc(N2CCC(C3CCN(c4ccc(Cl)cn4)CC3)CC2)cc1
C: Cc1cc(N2CCC(C3CCN(C(=O)OC(C)(C)C)CC3)CC2)nc(C#N)n1
D: Cc1cnc(N2CCC(C3CCN(c4cc(C)nc(C#N)n4)CC3)CC2)cn1
E: CS(=O)(=O)c1ccc(OCC[C@@H]2C[C@@H]2C2CCN(c3ncc(Cl)cn3)CC2)nc1
Order the entries above from lowest to highest EC50. // rank by listing labels in the order requested
C, E, A, D, B
(C: 2 nM, E: 4 nM, A: 10 nM, D: 64 nM, B: 131 nM)
